- experiment summary: inhibitors of TNFa-induced NFkB p65 translocation, primary screen, imaging, HUVEC, MLSMR starter and 10KST1 sets (AID 438);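 also: compound added about 3h40 before a 20 min TNFalpha stimulation; signal is the nuclear over cytoplasmic p65 intensity ratio per well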
- recorded conditions: HUVEC TNFa-induced p65 nuclear translocation; at 2 µM, active compounds read high, 0% TNFa-plus-vehicle, 100% no-TNFa wells
measured property: inhibition (%)
Supply the numeric figure in %, leaving out any unit text.

Which inhibition reading was recorded for the molecule Cc1occc1C(=O)Nc1ccc(S(=O)(=O)N2CCN(C)CC2)cc1 ? 1

And then Cc1cc2ccccc2n1CCNC(=O)C1CC1 , what is it? -6.9

And then c1ccc(CSCc2cn3ccsc3n2)cc1 , what is it? 1.2

And then O=C(CSc1nnc(-c2ccccn2)n1Cc1ccccc1)N1CCCC1 , what is it? 8.1

And then CCCSc1nnc2nc3c(nn12)c1ccccc1n3C , what is it? 4.4

And then COCc1cc(C)nc(Nc2ccc(C)cc2C)c1C#N , what is it? -12.3

And then NC(=O)c1sc2nc(N3CCCCC3)c3c(c2c1N)CCCC3 , what is it? 8.4

And then Cc1onc(-c2ccccc2)c1C(=O)N1CCOCC1 , what is it? -3.5

And then CC(=O)c1ccc(N2CCN(C(=O)c3cc(C)on3)CC2)cc1 , what is it? 0

And then O=C(Nc1ccccc1)N1C(=O)C2(OCCO2)c2ccccc21 , what is it? 6.5

And then Cc1cc(N2C(=O)C3C4C=CC(C4)C3C2=O)ccc1Br (configuration not stated) , what is it? 18.7

And then CCn1c(=O)cc(OCC(=O)Nc2cc(C)ccn2)c2ccccc21 , what is it? -0.6

And then CC(C)c1cc(C(=O)Nc2cccnc2)no1 , what is it? -2.8

And then O=C(CC1Oc2ccccc2NC1=O)NCCCN1CCOCC1 (configuration not stated) , what is it? 6.1

And then COC(=O)c1c(N)n(-c2cc(OC)cc(OC)c2)c2nc3ccccc3nc12 , what is it? 9.4

And then O=S(=O)(c1ccc2c(c1)OCCO2)N1CCC(n2nnc3cc(F)ccc32)CC1 , what is it? -9.9

And then Cc1c(NC(=O)CN2c3cccc4cccc(c34)S2(=O)=O)c(=O)n(-c2ccccc2)n1C , what is it? -7.1

And then Cc1ccc(C)c(-n2nnnc2SCC(=O)NCCC2=CCCCC2)c1 , what is it? -6.6

And then CN(C(=O)c1ccc(S(=O)(=O)NC2CCCC2)cc1)C1CCCCC1 , what is it? 2

And then COCCCNC(=O)CC1Oc2ccccc2NC1=O (configuration not stated) , what is it? 0

And then COc1ccc(S(=O)(=O)NCC(c2cccnc2)N2CCN(C)CC2)cc1C (configuration not stated) , what is it? -1.8

And then CCOC(=O)c1[nH]c2ccc(C)cc2c1N=C(C)N(C)C , what is it? 5.2

And then COc1ccc(CCNC(=O)CC2COc3ccccc3O2)cc1OC (configuration not stated) , what is it? -7.2

And then Cc1ccnc(NS(=O)(=O)c2ccc(NC(=O)Cc3cccs3)cc2)n1 , what is it? 6.3

And then CC(=O)N1CN(C2CCCC2)Cc2c1sc1c2CCCC1 , what is it? -14

And then Cc1cccc(C)c1-n1nnnc1SCSc1nnnn1-c1c(C)cccc1C , what is it? 7.5

And then CN(C)c1ccc(C2C3=C(CCCC3=O)OC3=C2C(=O)CCC3)cc1 , what is it? -6.3

And then Cc1cc(NC(=O)C(C)(C)C)no1 , what is it? -8.7

And then CN(C)c1cccc(C(=O)OCC(=O)NCc2ccco2)c1 , what is it? -12.9

And then Cc1nn(Cc2ccccc2Cl)c(C)c1NC(=O)C1C2CCC(O2)C1C(=O)O (configuration not stated) , what is it? 7.7

And then Cc1cc(C(=O)Nc2c(C)n(C)n(-c3ccccc3)c2=O)c(C)o1 , what is it? -1.4

And then Cc1nnc(NC(=O)CCC(=O)N2CCC(C)CC2)s1 , what is it? -2

And then CCOC(=O)Cn1ncc(-c2ccccc2)c1N , what is it? -0.5

And then CCOc1ccc2nc(N3CCC(C(=O)N4CCN(C5CCCCC5)CC4)CC3)sc2c1 , what is it? -0.8

And then Cc1sc2nc(SCC(=O)NCCO)n(C)c(=O)c2c1C , what is it? 4.3

And then CC(C)Cc1n[nH]c(=O)[nH]1 , what is it? -25.9

And then COc1ccccc1N(CC(=O)NC1CCCC1)C(=O)CCC(=O)Nc1cc(C)on1 , what is it? -8.6

And then CCOC(=O)C(C)Sc1nc2c(cnn2-c2ccc(C)cc2)c(=O)[nH]1 (configuration not stated) , what is it? -1.3

And then Cc1cc(C)n2nc(SCC(=O)N(C)Cc3ccccc3)nc2n1 , what is it? 7.4

And then CCN1CCN(C(=O)c2cn(CC)c3ccc(S(=O)(=O)N(C)C)cc3c2=O)CC1 , what is it? 1.3

And then CCC(C)N=C1SCC(C)(/C=N/O)S1 (configuration not stated) , what is it? -7.2

And then COc1ccc(CNS(=O)(=O)c2ccc3oc(C(=O)O)c(C)c3c2)cc1 , what is it? -4.4

And then CCOc1ccc2ccccc2c1/C=N/n1cncn1 , what is it? 3.4

And then O=C(c1cccc(Cl)c1)N1CCN(Cc2ccncc2)CC1 , what is it? 3.1

And then Cc1sc2nc(SCc3nc4ccccc4[nH]3)n(Cc3ccco3)c(=O)c2c1C , what is it? -2.2

And then Cc1ccc(OCC(O)Cn2c(NCCc3ccccc3)nc3c2c(=O)[nH]c(=O)n3C)cc1 (configuration not stated) , what is it? -1.8

And then O=C1CSC(c2cn(-c3ccccc3)nc2-c2ccccc2)N1Cc1ccco1 (configuration not stated) , what is it? -6.3

---

Assignment: determine reported inhibition of aggregation for the given molecules.
- experiment summary: reduction of polyQ htt aggregates in cells – imaging, exon1htt(103Q)mCFP cells, high-content imaging, primary screen (AID 483);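 also: compound exposure lasted 3 days before fixation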
- recorded conditions: exon1htt(103Q)mCFP cell line, aggregate imaging, at 2 µM; active compounds read high
Active and inactive are the calls of the source.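 How the source made its calls: active means visual image review flags a hit and inhibition of aggregation exceeds 20%; inconclusive means visual hit but inhibition at or below 20%; inactive means no hit on visual image review.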

Which inhibition of aggregation reading was recorded for the molecule COc1ccc(N2CCN(CCNS(=O)(=O)c3cccc4nsnc34)CC2)cc1 ? 8.4% (inactive)

And then c1cncc(-c2nnc(SCCSc3nnc(-c4cccnc4)o3)o2)c1 , what is it? 20.4% (inactive)

And then O=C(CSc1ncn[nH]1)c1ccco1 , what is it? -3.4% (inactive)

And then O=C1C2C3C=CC(C3=C3CCCCC3)C2C(=O)N1c1ccccc1 (stereo unspecified) , what is it? 3.7% (inactive)

And then Cc1c(C(=O)NCc2cccnc2)sc2ncn(CC(=O)N3CCCCC3C)c(=O)c12 (stereo unspecified) , what is it? -3.4% (inactive)

And then O=C(NC1CCCC1)C(NS(=O)(=O)c1cccc2nsnc12)c1ccccc1 (stereo unspecified) , what is it? 2.5% (inactive)

---

- experiment summary: inhibitors of TNFa-induced NFkB p65 translocation, primary screen, imaging, HUVEC, MLSMR starter and 10KST1 sets (AID 438);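 also: compound added about 3h40 before a 20 min TNFalpha stimulation; signal is the nuclear over cytoplasmic p65 intensity ratio per well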
- recorded conditions: HUVEC TNFa-induced p65 nuclear translocation; at 2 µM, 0% TNFa-plus-vehicle, 100% no-TNFa wells
Calls of active or inactive are those of the source.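 How the source made its calls: active means inhibition above 20% together with a positive visual image hit; inconclusive means visual image hit but inhibition not above 20%; inactive means no visual image hit.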
Assign a class; possible classes are 1 (active), 0 (inactive)

What is the recorded call for this compound in the test? COc1ccc(N(C(=O)c2ccco2)S(=O)(=O)c2cc(OC)ccc2OC)cc1 0

And then COc1cccc(-c2nnc(SCC(=O)N3CCCc4ccccc43)o2)c1 , what is it? 0

And then O=C(NCc1ccco1)c1cccc(-c2nnc(-c3ccccc3)o2)c1 , what is it? 0

And then Cc1cc(C)cc(NC(=O)c2nnn(Cc3cc(C)ccc3C)c2N)c1 , what is it? 0

And then Cc1cc(OCC(=O)N2CCOCC2)cc2oc(=O)c3ccccc3c12 , what is it? 0

And then NC(=O)CSCc1ccc(Br)cc1 , what is it? 0

And then COc1ccc(OC)c(N(CC(=O)Nc2cccnc2)S(=O)(=O)c2ccc(OC)c(OC)c2)c1 , what is it? 0

And then COc1ccccc1N1CCN(Cc2nnnn2CCc2ccccc2)CC1 , what is it? 0

And then COC(=O)C1=C(C)N(c2ccc(C(=O)OC)cc2)C(=O)C1 , what is it? 0

And then CCOc1ccc2nc(Nc3nc4c(c(=O)[nH]3)CCC4)nc(C)c2c1 , what is it? 0

And then CC(=O)N1CCc2cc(S(=O)(=O)CCC(=O)N3CCN(c4ccccn4)CC3)ccc21 , what is it? 0

And then CCOc1ccc(N(CC(=O)NC2CCCC(C)C2C)S(=O)(=O)c2c(C)noc2C)cc1 (configuration not stated) , what is it? 0

And then COc1ccc(C2CC(c3ccc(C)cc3)Nc3ncnn32)cc1 (configuration not stated) , what is it? 0

And then COC(=O)c1ccccc1NC(=O)Cn1c(-c2nonc2N)nc2ccccc21 , what is it? 0

And then O=c1c2cnn(-c3ccccc3)c2ncn1/N=C/c1ccncc1 , what is it? 0

And then O=C(CSc1nnc(SCc2ccc(Cl)cc2)s1)N1CCN(C(=O)c2ccco2)CC1 , what is it? 1

And then COc1ccc(C2=NOC(C(=O)NCc3ccc(F)cc3)C2)cc1OC (configuration not stated) , what is it? 0

And then CCOC(=O)c1c(C)[nH]c(C=Nc2ccccc2)c1O , what is it? 0

And then O=C(OCC#CCSc1nnc(-c2ccncc2)o1)c1cccs1 , what is it? 0

And then O=C(CN(Cc1ccc(F)cc1)C(=O)Cn1nnc2ccccc21)NCC1CCCO1 (configuration not stated) , what is it? 0

And then CCCCN(C)Cc1c(O)ccc2c(-c3ccccc3)cc(=O)oc12 , what is it? 0

And then CC(=O)c1c(C)[nH]c(C(=O)OCc2nnc(-c3ccccc3)o2)c1C , what is it? 0
